System: ETB
Assay: ETB radio receptor assay *2, 125I-endothelin-1, guinea pig kidney crude membrane fraction
Assay type: binding, Guinea pigs
Settings: relative activity, 37 °C, 90 minutes
Non-standard residues stand in square brackets, D forms with d. Residues, ends and D or L forms follow the SMILES beside them. Pip = O=C(O)[C@@H]1CCCCN1
Recorded Binding Activity on ET Receptor (R. act.) ETB*2 for the following compounds
Give the figure by itself; no unit, no explanation.

[
  {
    "Compound": "CC(C)C[C@@H]1NC(=O)[C@@H](CC(C)C)NC(=O)[C@H](CC(=O)O)NC(=O)[C@H](C)NC(=O)[C@@H](CCC(=O)O)NC(=O)[C@@H](Cc2c[nH]c3ccccc23)NC1=O [Example 41, Cyclo[-D-Glu-Ala-Asp-D-Leu-Leu-D-Trp-]] (cyclo(AD[dL]L[dW][dE]))",
    "Measurement": 26
  },
  {
    "Compound": "CC(C)C[C@@H]1NC(=O)[C@@H](CC(C)C)NC(=O)[C@H](C)NC(=O)[C@@H](CC(=O)O)NC(=O)[C@@H](CC(=O)O)NC(=O)[C@@H](Cc2c[nH]c3ccccc23)NC1=O [Example 27, Cyclo[-D-Asp-D-Asp-Ala-D-Leu-Leu-D-Trp-]] (cyclo(A[dL]L[dW][dD][dD]))",
    "Measurement": 4.8
  },
  {
    "Compound": "CC(C)C[C@@H]1NC(=O)[C@@H](CC(C)C)NC(=O)[C@H](Cc2c[nH]c3ccccc23)NC(=O)[C@H](CC(=O)O)NC(=O)[C@@H](CC(=O)O)NC(=O)[C@@H](Cc2c[nH]c3ccccc23)NC1=O [Example 33, Cyclo[-D-Asp-Asp-Trp-D-Leu-Leu-D-Trp-]] (cyclo(DW[dL]L[dW][dD]))",
    "Measurement": 5.6
  },
  {
    "Compound": "CC(C)C[C@@H]1NC(=O)[C@@H](CC(C)C)NC(=O)[C@H](CC(=O)O)NC(=O)[C@H](C(C)C)NC(=O)[C@@H](CC(=O)O)NC(=O)[C@@H](Cc2c[nH]c3ccccc23)NC1=O [Example 17, Cyclo[-D-Asp-Val-Asp-D-Leu-Leu-D-Trp-]] (cyclo(D[dL]L[dW][dD]V))",
    "Measurement": 22
  },
  {
    "Compound": "CC(C)C[C@@H]1NC(=O)[C@@H](CC(C)C)NC(=O)[C@H](CC(=O)O)NC(=O)[C@@H]2CCCCN2C(=O)[C@@H](CC(=O)O)NC(=O)[C@@H](Cc2c[nH]c3ccccc23)NC1=O [Example 26, Cyclo[-D-Asp-Pip-Asp-D-Leu-Leu-D-Trp-]] (cyclo(D[dL]L[dW][dD][Pip]))",
    "Measurement": 73
  }
]

**Query** Look at this compound and give its reported Binding Activity on ET Receptor (R. act.) ETB*2. CC(C)C[C@@H]1NC(=O)[C@H](CC(=O)O)NC(=O)[C@@H](CC(=O)O)NC(=O)[C@@H](Cc2c[nH]c3ccccc23)NC(=O)[C@H](CC(C)C)NC(=O)[C@@H](CC(C)C)NC1=O [Example 32, Cyclo[-D-Asp-Asp-Leu-D-Leu-Leu-D-Trp-]] (cyclo(DL[dL]L[dW][dD]))
**Result** 7.7
